# Assay target: KDR kinase (Seq ID No. 3) (Homo sapiens, UniProt P35968, DEL940-989/E990V)
# Sequence (P35968 with tags, fused parts or gaps DEL940-989/E990V): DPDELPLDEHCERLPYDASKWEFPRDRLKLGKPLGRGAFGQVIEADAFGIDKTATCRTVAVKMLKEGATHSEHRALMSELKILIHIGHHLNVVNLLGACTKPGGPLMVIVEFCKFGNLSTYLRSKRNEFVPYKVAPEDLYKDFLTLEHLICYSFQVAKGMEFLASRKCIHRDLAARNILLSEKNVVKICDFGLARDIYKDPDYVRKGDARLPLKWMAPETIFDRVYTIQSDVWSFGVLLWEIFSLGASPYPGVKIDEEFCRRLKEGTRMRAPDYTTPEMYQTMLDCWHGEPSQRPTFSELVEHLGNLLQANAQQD
# Assay protocol: KDR Kinase Assay (assays K1, K2, K3)
# Experimental conditions: assay variant K1, K2 or K3 not stated; read-out: KDR Enzyme Assay
Readout type: IC50

Would you please look over these solved cases?
Cn1cc(-c2cc(Oc3ccc(NC(=O)C4(C(=O)NCc5ccccc5)CC4)c(F)c3F)ccn2)cn1 :: < 2 µM
C[C@@H](NC(=O)C1(C(=O)Nc2ccc(Oc3ccnc(-c4cnn(C)c4)c3)c(F)c2)CC1)c1ccccc1 :: < 10 µM
Cc1cc(F)c(NC(=O)C2(C(=O)Nc3ccc(F)cc3)CC2)cc1Oc1nccc(-c2cn[nH]c2)n1 :: < 10 µM

Lab note: next compound to report on.
Q: Please list IC50 recorded for the compound Cn1cc(-c2cc(Oc3ccc(NC(=O)C4(C(=O)NCc5ccccc5)CC4)cc3F)ccn2)cn1
Result: < 2 µM

* * *

Observed IC50 for PDGFRα kinase (Homo sapiens, UniProt P16234), reported per entry below.

Use these answered entries as a reference point.
Cc1nn(C)cc1-c1cc(Oc2cc(F)c(NC(=O)C3(C(=O)Nc4ccc(F)cc4)CC3)cc2F)ccn1 [Example 49] :: < 10 µM
Cn1cc(-c2cc(Oc3ccc(NC(=O)C4(C(=O)NCc5ccccc5)CC4)c(F)c3F)ccn2)cn1 [Example 3] :: < 2 µM

Now take the following compound into account.
Q: Please list IC50 recorded for the compound O=C(Nc1ccc(F)cc1)C1(C(=O)Nc2cc(Oc3nccc(-c4cn[nH]c4)n3)ccc2F)CC1 [Example 55]
Result: < 10 µM

* * *

# Assay target: c-MET kinase (Seq. ID no. 2) (Homo sapiens)
# Sequence (P08581 with tags, fused parts or gaps): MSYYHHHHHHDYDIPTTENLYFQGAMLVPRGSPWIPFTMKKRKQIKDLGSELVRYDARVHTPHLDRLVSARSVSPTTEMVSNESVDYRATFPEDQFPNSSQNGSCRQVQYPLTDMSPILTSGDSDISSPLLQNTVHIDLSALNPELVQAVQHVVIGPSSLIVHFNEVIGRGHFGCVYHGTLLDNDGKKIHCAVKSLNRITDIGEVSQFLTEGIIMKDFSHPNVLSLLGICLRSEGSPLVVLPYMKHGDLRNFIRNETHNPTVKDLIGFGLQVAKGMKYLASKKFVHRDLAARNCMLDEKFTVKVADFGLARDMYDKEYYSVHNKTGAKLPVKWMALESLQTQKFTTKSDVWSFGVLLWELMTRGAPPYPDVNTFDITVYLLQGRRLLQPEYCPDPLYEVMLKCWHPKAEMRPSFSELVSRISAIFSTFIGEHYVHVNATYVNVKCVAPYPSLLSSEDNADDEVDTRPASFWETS
# Assay protocol: c-MET Kinase Assay (ADP production, pyruvate kinase/lactate dehydrogenase coupled)
# Experimental conditions: read-out: cMET Enzyme Assay
pIC50: −log10 of the molar value.
Readout type: pIC50

Parameters: items (list). Returns: pIC50 for each item.
1. CC[C@H](NC(=O)C1(C(=O)Nc2ccc(Oc3ccnc(-c4cnn(C)c4)c3)c(F)c2)CC1)c1ccc(F)cc1 [Example 34]
2. Cc1cc(F)c(NC(=O)C2(C(=O)Nc3ccc(F)cc3)CC2)cc1Oc1nccc(-c2cnn(C)c2)n1 [Example 52]
3. Cc1cc(-c2cc(Oc3ccc(NC(=O)C4(C(=O)Nc5ccc(F)cc5)CC4)c(F)c3)ccn2)on1 [Example 59]
4. Cn1cc(-c2cc(Oc3c(F)cc(NC(=O)NC(=O)Cc4ccc(F)cc4)cc3F)ccn2)cn1 [Example 48]

Result:
1: > 5.70; 2: > 5.00; 3: > 6.70; 4: > 5.00
